target: HiBiT-BRM fusion protein in stable HeLa cell line (Homo sapiens); construct: expressed in transfected cells; assay: HiBiT-BRM cell-based degradation assay (Nano-Glo HiBiT Lytic Detection, 24 h); parameters: scale not given here; conditions: HeLa HiBiT-BRM cells, read-out: BRM HiBit Degradation IC50
Sequence (P51531 whole entry, the tested form may be a part): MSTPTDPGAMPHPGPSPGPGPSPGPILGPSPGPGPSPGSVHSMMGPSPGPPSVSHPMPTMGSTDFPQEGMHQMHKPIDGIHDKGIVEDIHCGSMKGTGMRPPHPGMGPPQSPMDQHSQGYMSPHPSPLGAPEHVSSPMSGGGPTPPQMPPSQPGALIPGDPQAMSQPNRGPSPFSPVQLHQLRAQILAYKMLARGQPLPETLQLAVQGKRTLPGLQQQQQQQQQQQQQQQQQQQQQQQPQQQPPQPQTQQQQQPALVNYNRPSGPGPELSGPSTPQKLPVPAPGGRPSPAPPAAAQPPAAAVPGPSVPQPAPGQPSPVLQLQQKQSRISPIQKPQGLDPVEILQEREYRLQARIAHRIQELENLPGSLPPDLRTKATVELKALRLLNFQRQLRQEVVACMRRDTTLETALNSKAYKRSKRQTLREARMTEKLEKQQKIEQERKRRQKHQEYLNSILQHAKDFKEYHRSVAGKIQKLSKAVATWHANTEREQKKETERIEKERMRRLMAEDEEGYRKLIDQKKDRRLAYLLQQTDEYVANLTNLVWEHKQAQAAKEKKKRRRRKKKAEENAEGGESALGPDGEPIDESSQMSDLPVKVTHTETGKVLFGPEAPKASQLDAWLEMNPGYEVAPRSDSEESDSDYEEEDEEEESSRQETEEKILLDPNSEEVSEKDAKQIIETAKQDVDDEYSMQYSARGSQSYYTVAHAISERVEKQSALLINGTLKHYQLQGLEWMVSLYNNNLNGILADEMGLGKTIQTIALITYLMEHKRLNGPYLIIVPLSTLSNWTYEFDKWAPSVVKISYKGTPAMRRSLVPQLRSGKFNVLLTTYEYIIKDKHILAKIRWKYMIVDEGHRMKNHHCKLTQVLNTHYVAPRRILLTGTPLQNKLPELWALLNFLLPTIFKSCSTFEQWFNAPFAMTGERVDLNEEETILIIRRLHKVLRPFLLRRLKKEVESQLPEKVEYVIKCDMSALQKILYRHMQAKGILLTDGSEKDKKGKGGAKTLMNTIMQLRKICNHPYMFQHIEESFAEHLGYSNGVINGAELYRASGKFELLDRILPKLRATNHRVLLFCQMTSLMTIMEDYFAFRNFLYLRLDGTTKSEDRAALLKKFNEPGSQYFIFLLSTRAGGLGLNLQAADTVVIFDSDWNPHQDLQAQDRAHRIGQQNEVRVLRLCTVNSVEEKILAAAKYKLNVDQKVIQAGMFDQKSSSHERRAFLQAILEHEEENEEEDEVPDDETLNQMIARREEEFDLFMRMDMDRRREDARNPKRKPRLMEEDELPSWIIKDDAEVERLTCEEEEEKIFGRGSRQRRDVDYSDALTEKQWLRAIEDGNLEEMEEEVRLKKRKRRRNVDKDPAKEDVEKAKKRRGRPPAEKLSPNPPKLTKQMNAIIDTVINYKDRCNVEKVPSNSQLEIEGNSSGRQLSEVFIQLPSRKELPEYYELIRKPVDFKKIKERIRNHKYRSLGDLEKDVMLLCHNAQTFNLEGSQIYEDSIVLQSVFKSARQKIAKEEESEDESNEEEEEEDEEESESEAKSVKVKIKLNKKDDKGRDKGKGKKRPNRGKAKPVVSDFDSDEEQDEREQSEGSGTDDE
Overview of reported DC50 across a group of compounds:

Reference set, count: 4
[[record]]
compound = "Cc1ncsc1-c1ccc([C@H](C)NC(=O)[C@@H]2C[C@@H](O)CN2C(=O)C(C(C)C)n2cc(N3CCC4CCN(c5ccc6cc(-c7ccccc7O)nnc6c5)C4C3)nn2)cc1 (some centres unmarked) [Compound 248]"
quantity = "DC50"
reading = "< 10 nM"

[[record]]
compound = "Cc1ncsc1-c1ccc([C@H](C)NC(=O)[C@@H]2C[C@@H](O)CN2C(=O)[C@@H](c2cc(N3CC4(CN(c5ccc6nnc(-c7ccccc7O)cc6c5)CCO4)C3)no2)C(C)C)cc1 [Compound 129]"
quantity = "DC50"
reading = "< 10 nM"

[[record]]
compound = "Cc1ncsc1-c1ccc([C@H](C)NC(=O)[C@@H]2C[C@@H](O)CN2C(=O)C(C(C)C)n2cc(N3CCC4(CCN(c5ccc6nnc(-c7ccccc7O)cc6c5)CC4)C3)nn2)cc1 (some centres unmarked) [Compound 279]"
quantity = "DC50"
reading = "< 10 nM"

[[record]]
compound = "Cc1ncsc1-c1ccc([C@H](C)NC(=O)[C@@H]2C[C@@H](O)CN2C(=O)[C@@H](c2cc(N3C[C@]4(C)CN(c5ccc6nnc(-c7ccccc7O)cc6c5)C[C@]4(C)C3)no2)C(C)C)cc1 [Compound 188]"
quantity = "DC50"
reading = "> 10 nM"


Please look at the following compound next.
Endpoint output: DC50 of Cc1ncsc1-c1ccc([C@H](C)NC(=O)[C@@H]2C[C@@H](O)CN2C(=O)[C@@H](c2cc(N3CCC(c4ccc5nnc(-c6ccccc6O)cc5c4)CC3)no2)C(C)C)cc1 [Compound 61] . Value?
> 10 nM

Every entry's value here was drawn from patent US20260193264A1.
